Here the recorded pIC50 is given for each entry.
- TARGET UNDER TEST: xanthine oxidase (Bos taurus, UniProt P80457)
- Construct: derived from milk; manufactured by Sigma; purchased Sigma; host or cells: milk (natural source)
- Sequence (P80457 whole entry): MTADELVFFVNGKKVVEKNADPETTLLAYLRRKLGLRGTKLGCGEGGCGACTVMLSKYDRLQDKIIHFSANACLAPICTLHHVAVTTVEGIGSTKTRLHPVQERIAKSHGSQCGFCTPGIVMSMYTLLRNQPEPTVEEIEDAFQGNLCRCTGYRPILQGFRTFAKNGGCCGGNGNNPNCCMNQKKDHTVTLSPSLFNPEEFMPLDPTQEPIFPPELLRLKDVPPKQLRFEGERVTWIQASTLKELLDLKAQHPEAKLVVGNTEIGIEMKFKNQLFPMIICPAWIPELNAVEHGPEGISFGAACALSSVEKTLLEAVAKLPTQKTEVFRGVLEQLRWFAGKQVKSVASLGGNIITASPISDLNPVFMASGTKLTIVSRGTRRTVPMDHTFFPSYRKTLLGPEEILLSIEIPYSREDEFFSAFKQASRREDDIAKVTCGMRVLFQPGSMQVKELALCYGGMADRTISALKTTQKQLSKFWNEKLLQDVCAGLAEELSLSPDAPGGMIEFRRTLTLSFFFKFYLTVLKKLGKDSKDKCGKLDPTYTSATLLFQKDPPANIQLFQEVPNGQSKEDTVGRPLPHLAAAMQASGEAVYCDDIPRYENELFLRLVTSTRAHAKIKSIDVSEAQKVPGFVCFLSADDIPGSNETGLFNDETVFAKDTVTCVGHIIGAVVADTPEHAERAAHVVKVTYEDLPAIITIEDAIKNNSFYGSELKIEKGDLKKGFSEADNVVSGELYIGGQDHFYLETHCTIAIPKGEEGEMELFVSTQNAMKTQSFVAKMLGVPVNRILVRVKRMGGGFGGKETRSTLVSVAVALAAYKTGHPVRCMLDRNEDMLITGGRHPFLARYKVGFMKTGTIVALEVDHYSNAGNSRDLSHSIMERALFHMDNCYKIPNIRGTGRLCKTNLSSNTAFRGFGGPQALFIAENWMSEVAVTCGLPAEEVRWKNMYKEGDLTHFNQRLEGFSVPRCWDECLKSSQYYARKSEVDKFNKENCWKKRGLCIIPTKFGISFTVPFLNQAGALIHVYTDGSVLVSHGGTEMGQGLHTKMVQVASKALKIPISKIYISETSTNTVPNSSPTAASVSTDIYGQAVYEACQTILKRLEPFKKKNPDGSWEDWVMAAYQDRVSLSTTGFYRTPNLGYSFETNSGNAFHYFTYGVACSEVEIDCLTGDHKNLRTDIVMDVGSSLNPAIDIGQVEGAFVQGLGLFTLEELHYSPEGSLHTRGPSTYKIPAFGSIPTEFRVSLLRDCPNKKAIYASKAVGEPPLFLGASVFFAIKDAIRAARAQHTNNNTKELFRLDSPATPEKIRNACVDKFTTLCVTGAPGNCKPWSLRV
- PROTOCOL SUMMARY: Test for xanthine oxidase inhibitory activity
- Assay type: biochemical
- EXPERIMENTAL SETUP: xanthine oxidase derived from milk (Sigma); substrate xanthine; uric acid production at OD 292 nm, 37° C.
pIC50 field: float, defined as -log10 of concentration (mol/L).

>>> print(df.to_string())
                               query_smiles  measured_value
0     N#Cc1cc(-c2ncccc2C(=O)O)ccc1N1CCCCCC1            7.47
1    CC(C)(C)COc1ccc(-c2ncccc2C(=O)O)cc1C#N            7.38
2  N#Cc1cc(-c2ncccc2C(=O)O)ccc1OCCCOc1ccc(OC(F)(F)F)cc1Cl            7.24

I'd like to know its pIC50. The compound in question is COc1ccc(CC(C)(C)COc2ccc(-c3ncccc3C(=O)O)cc2C#N)cc1
7.89

State the recorded pIC50 for this entry: N#Cc1cc(-c2ncccc2C(=O)O)ccc1OCCCCc1ccccc1C(F)(F)F
7.59

Fill in the blank: the reported pIC50 of N#Cc1cc(-c2ncccc2C(=O)O)ccc1OCCCc1ccccc1 is ____.
7.28

* * *

The following compounds are listed with their measured melting point values.

Below: 3 compounds and their reported melting point.
>>> df
                               query_smiles  measured_value
0  CC(C)(COc1ccc(-c2ncccc2C(=O)O)cc1C#N)Cc1ccccc1   196 to 197 °C
1  N#Cc1cc(-c2ncccc2C(=O)O)ccc1OCCc1ccccc1C(F)(F)F   187 to 188 °C
2     N#Cc1cc(-c2ncccc2C(=O)O)ccc1OCC1CCCC1   227 to 228 °C

Record request: melting point value, item CCCCC(C)(C)COc1ccc(-c2ncccc2C(=O)O)cc1C#N
155 to 156 °C

Which melting point is reported for this compound? CCC1(COc2ccc(-c3ncccc3C(=O)O)cc2C#N)CCCC1
196 to 197 °C

Please report the recorded melting point for CC(C)(COc1ccc(-c2ncccc2C(=O)O)cc1C#N)c1ccccc1 .
221 to 222 °C

What melting point value was documented for this compound, CC(C)COc1ccc(-c2ncccc2C(=O)O)cc1C#N ?
178 to 179 °C

Give its melting point value. Item: CC(C)(CCc1ccccc1)COc1ccc(-c2ncccc2C(=O)O)cc1C#N
172 to 173 °C

Endpoint output: melting point of N#Cc1cc(-c2ncccc2C(=O)O)ccc1OCCCc1ccccc1F . Value?
173 to 174 °C

Find the recorded melting point belonging to N#Cc1cc(-c2ncccc2C(=O)O)ccc1OCCCOc1ccc(Oc2ccccc2)cc1 and report it.
149 to 150 °C

Which melting point is listed for N#Cc1cc(-c2ncccc2C(=O)O)ccc1OCC1CCCCC1 ?
220 to 221 °C

Need melting point of N#Cc1cc(-c2ncccc2C(=O)O)ccc1OCCC1CCCCC1 , thanks.
171 to 172 °C

// query melting point value for entry N#Cc1cc(-c2ncccc2C(=O)O)ccc1OCC1CCC1
204 to 205 °C

* * *

- TARGET UNDER TEST: xanthine oxidase (Bos taurus)
- Construct: derived from milk; manufactured by Sigma
- PROTOCOL SUMMARY: Test for xanthine oxidase inhibitory activity
- EXPERIMENTAL SETUP: xanthine oxidase derived from milk (Sigma); substrate xanthine; uric acid production at OD 292 nm, 37° C.
Binning scheme for IC50: bin A: < 30 nM; bin B: ≥ 30 nM and < 50 nM; bin C: ≥ 50 nM

Worked examples, 5 compounds total:
>>> df
                                   compound  label_value
0  CC(C)COc1ccc(-c2ncccc2C(=O)O)cc1C#N [Example 44]        bin C
1  COc1ccc(CCCOc2ccc(-c3ncccc3C(=O)O)cc2C#N)cc1 [Example 120]        bin B
2  N#Cc1cc(-c2ncccc2C(=O)O)ccc1OCCCCc1ccccc1F [Example 64]        bin B
3  N#Cc1cc(-c2ncccc2C(=O)O)ccc1OCCCc1ccc(C(F)(F)F)cc1 [Example 59]        bin B
4  N#Cc1cc(-c2ncccc2C(=O)O)ccc1OCCCCc1ccccc1 [Example 62]        bin A

For this compound, which bin applies? COc1ccccc1CC(C)(C)COc1ccc(-c2ncccc2C(=O)O)cc1C#N [Example 112]
bin A

Returns: class label. Input: CCC1(COc2ccc(-c3ncccc3C(=O)O)cc2C#N)CCCC1 [Example 76]
bin A

Kindly state the category for this compound: CC(C)(C)c1cc(CCCCOc2ccc(-c3ncccc3C(=O)O)cc2C#N)cc(C(C)(C)C)c1O [Example 90]
bin B

Consider N#Cc1cc(-c2ncccc2C(=O)O)ccc1OCCCOc1ccc(Oc2ccccc2)cc1 [Example 71] . To which IC50 class does it belong?
bin C

Category of N#Cc1cc(-c2ncccc2C(=O)O)ccc1OCCCc1ccccc1C(F)(F)F [Example 118] , please.
bin A

Form: Item = CS(=O)(=O)Oc1ccc(CCOc2ccc(-c3ncccc3C(=O)O)cc2C#N)cc1 [Example 86] ; Class = ?
bin C
